The compounds listed here are annotated with their melting point.
readout kind: melting point

compound=Cc1ccc(/N=C2/C=C(c3ccccc3)N(c3ccc(C)cc3)C2=O)cc1 readout_kind="melting point" value_reported="207 °C (dec.)"
compound="COC(=O)C1=C(Nc2ccc(C)cc2)C(=O)N(c2ccc(C)cc2)C1c1ccccc1 (stereo not shown)" readout_kind="melting point" value_reported="179 to 181 °C"
compound=Cc1ccc(NC2=CCN(c3ccc(C)cc3)C2=O)cc1 readout_kind="melting point" value_reported="178 to 180 °C"
compound="CCOC(=O)[C@]1(C)C[C@@H](Nc2ccc(C)cc2)C(=O)N1c1ccc(C)cc1 (relative stereo)" readout_kind="melting point" value_reported="173 to 174 °C"

----------
# Test system: SKOV3 (human ovarian carcinoma)
# experiment notes: CCK-8 antiproliferative assay, SKOV3 cell line
# test parameters: Homo sapiens, SK-OV-3, read-out: IC50 SKOV3, SKOV3 cell line, CCK-8
pIC50: −log10 of the molar value.
readout kind: pIC50

molecule="Cc1ccc(NC2=CC(c3ccc(C)cc3)N(c3ccc(C)cc3)C2=O)cc1 (centres unmarked)" target="SKOV3 (human ovarian carcinoma)" value_reported="< 4.30"
molecule="Cc1ccc(NC2=CC(c3c(F)c(F)c(F)c(F)c3F)N(c3ccc(C)cc3)C2=O)cc1 (centres unmarked)" target="SKOV3 (human ovarian carcinoma)" value_reported="< 4.30"
molecule="O=C1C(Nc2ccc(Br)cc2)=CC(c2ccc([N+](=O)[O-])cc2)N1c1ccc(Br)cc1 (centres unmarked)" target="SKOV3 (human ovarian carcinoma)" value_reported="< 4.30"
molecule="Cc1ccc(NC2=CC(c3cccc([N+](=O)[O-])c3)N(c3ccc(C)cc3)C2=O)cc1 (centres unmarked)" target="SKOV3 (human ovarian carcinoma)" value_reported=4.56
molecule="Cc1ccc(NC2=CC(c3ccc4ccn(C)c4c3)N(c3ccc(C)cc3)C2=O)cc1 (centres unmarked)" target="SKOV3 (human ovarian carcinoma)" value_reported="< 4.30"

----------
# Test system: SKOV3 (human ovarian carcinoma)
# experiment notes: CCK-8 antiproliferative assay, SKOV3 cell line
# test parameters: Homo sapiens, SK-OV-3, read-out: IC50 SKOV3, SKOV3 cell line, CCK-8
readout kind: IC50

compound="Cc1ccc(\\N=C(/C=C/C=C/c2ccc(C(F)(F)F)cc2)C(=O)Nc2ccc(C)cc2)cc1 [20b]" value_reported="> 50 µM"
compound="Cc1ccc(NC2=CC(c3ccc(C(F)(F)F)cc3)N(c3ccc(C)cc3)C2=O)cc1 (centres unmarked) [4i]" value_reported="> 50 µM"
compound="Cc1ccc(NC2=CC(c3ccc4ccccc4c3)N(c3ccc(C)cc3)C2=O)cc1 (centres unmarked) [4m]" value_reported="30.5 µM"
compound="Cc1ccc(N[C@@H]2C[C@H](C(F)(F)F)N(c3ccc(C)cc3)C2=O)cc1 [18a]" value_reported="> 50 µM"
compound="CC1=C(Nc2ccc(C)cc2)C(=O)N(c2ccc(C)cc2)C1c1ccc([N+](=O)[O-])cc1 (centres unmarked) [5a]" value_reported="> 50 µM"
